Sequence of the target: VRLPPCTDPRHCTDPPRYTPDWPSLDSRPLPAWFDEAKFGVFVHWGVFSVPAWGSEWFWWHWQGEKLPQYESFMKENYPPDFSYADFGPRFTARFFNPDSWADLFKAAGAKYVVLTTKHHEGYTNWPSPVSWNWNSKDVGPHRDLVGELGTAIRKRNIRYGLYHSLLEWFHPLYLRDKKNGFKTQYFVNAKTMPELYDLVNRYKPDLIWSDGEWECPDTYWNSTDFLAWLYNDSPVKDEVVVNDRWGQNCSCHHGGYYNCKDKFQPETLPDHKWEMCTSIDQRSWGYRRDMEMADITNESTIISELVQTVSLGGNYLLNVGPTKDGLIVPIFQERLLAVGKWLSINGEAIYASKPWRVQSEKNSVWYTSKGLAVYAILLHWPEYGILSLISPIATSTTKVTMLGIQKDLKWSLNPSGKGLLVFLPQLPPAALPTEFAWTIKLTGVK
ENDPOINT NAME: pKi
Just the number, please; pKi means minus log10 of the concentration in mol/L.

Check out these entries, answers already filled in.
| MOLECULE | pKi |
| --- | --- |
| CCCNC(=O)ON=C1O[C@@H](C)[C@@H](O)[C@@H](O)[C@@H]1O | 3.72 |
| C=CCNC(=O)ON=C1O[C@@H](C)[C@@H](O)[C@@H](O)[C@@H]1O | 3.76 |

Ask: Complete the entry with pKi for `CCCCc1ccc(NC(=O)ON=C2O[C@@H](C)[C@@H](O)[C@@H](O)[C@@H]2O)cc1`
Reply: 5.12

Ask: Complete the entry with pKi for `CC(C)NC(=O)ON=C1O[C@@H](C)[C@@H](O)[C@@H](O)[C@@H]1O`
Reply: 3.49

Ask: Complete the entry with pKi for `C[C@@H]1OC(=NOC(=O)NC(C)(C)C)[C@@H](O)[C@H](O)[C@@H]1O`
Reply: 3.36

Ask: Complete the entry with pKi for `C[C@@H]1OC(=NOC(=O)Nc2ccc(Br)cc2)[C@@H](O)[C@H](O)[C@@H]1O`
Reply: 4.07

Ask: Complete the entry with pKi for `COc1ccc(NC(=O)ON=C2O[C@@H](C)[C@@H](O)[C@@H](O)[C@@H]2O)cc1`
Reply: 5.02

Ask: Complete the entry with pKi for `C[C@@H]1OC(=NOC(=O)NC2CCC2)[C@@H](O)[C@H](O)[C@@H]1O`
Reply: 3.66

Ask: Complete the entry with pKi for `CCCCNC(=O)ON=C1O[C@@H](C)[C@@H](O)[C@@H](O)[C@@H]1O`
Reply: 3.76

Source: paper PMC6589914
